System: MAPK1(ERK2) enzyme (Homo sapiens) | Read-out: IC50 | Origin: multiple publications
Respond numerically; units are nM and should not be typed.

Answered examples (2):
> print(dat)
                                   molecule                      target.system  readout.units  recorded.result
1     Cc1nc(C)c(-c2ccnc(Nc3ccc(F)cc3F)n2)s1  MAPK1(ERK2) enzyme (Homo sapiens)             nM            55000
2  CCC(O)[C@H](CC)Nc1nc(NCc2ccccn2)c2ncn(C(C)C)c2n1 (mixture of isomers)  MAPK1(ERK2) enzyme (Homo sapiens)             nM            80000

Find IC50 for [2H]C([2H])([2H])OC[C@H]1Cn2cc(-c3nc(Nc4ccnn4C([2H])([2H])[2H])ncc3C)nc2C(=O)N1Cc1ccc(F)c(F)c1 on MAPK1(ERK2) enzyme (Homo sapiens) and write it down.
2.75

----------
pIC50: −log10 of the molar value.
System: MAPK1(ERK2) enzyme (Homo sapiens, UniProt P28482) | Read-out: pIC50 | Origin: multiple publications

Find pIC50 for Cn1nccc1Nc1cc(-c2cc3n(c2)CCCn2c-3nnc2C2(C(F)(F)F)CCC2)c(Cl)cn1 on MAPK1(ERK2) enzyme (Homo sapiens, UniProt P28482) and write it down.
≥ 8.30

Find pIC50 for COC[C@@H](NC(=O)c1nc2cc3c(-c4ccncc4)n[nH]c3cc2[nH]1)c1ccccc1 on MAPK1(ERK2) enzyme (Homo sapiens, UniProt P28482) and write it down.
8.86

Find pIC50 for Cc1cnc(Nc2ccnn2C)cc1-c1cc2n(c1)CC1(CCC1)Cn1c-2nnc1C1(C(F)(F)F)CCC1 on MAPK1(ERK2) enzyme (Homo sapiens, UniProt P28482) and write it down.
≥ 8.30

Find pIC50 for Cn1nccc1Nc1cc(-c2cc3n(c2)CCCn2c-3nnc2N2CCc3ccccc32)c(Cl)cn1 on MAPK1(ERK2) enzyme (Homo sapiens, UniProt P28482) and write it down.
8.00 to 8.30

Find pIC50 for Cc1cnc(Nc2ccnn2C)nc1-c1cc2n(c1)C[C@H](CF)n1c-2nnc1C(F)(F)n1cc(Cl)cn1 on MAPK1(ERK2) enzyme (Homo sapiens, UniProt P28482) and write it down.
≥ 8.30

Find pIC50 for CCNC(=O)Nc1ccc2ncc(-c3ccc(Cl)cc3OC)nc2n1 on MAPK1(ERK2) enzyme (Homo sapiens, UniProt P28482) and write it down.
7.08

Find pIC50 for Nc1ncc(C2CCOCC2)cc1-c1ccc(C(=O)N[C@H](CO)c2ccccc2)cc1Cl on MAPK1(ERK2) enzyme (Homo sapiens, UniProt P28482) and write it down.
6.67

Find pIC50 for Cc1cnc(Nc2ccnn2C)cc1-c1cc2n(c1)C[C@H](CF)n1c-2nnc1C(F)(F)n1nccc1Cl on MAPK1(ERK2) enzyme (Homo sapiens, UniProt P28482) and write it down.
≥ 8.30

----------
System: UniProtKB P28482 | Read-out: pIC50 | Origin: multiple publications
// pIC50 here means minus log10 of the molar concentration (mol/L)

Answered examples (3):
> print(dat)
                                        mol  recorded.result
1  CN(NC(=O)c1nc2cc3c(-c4ccncc4)n[nH]c3cc2[nH]1)c1ccccc1             9.07
2  C[C@@H](NC(=O)c1nc2cc3c(-c4ccncc4)n[nH]c3cc2[nH]1)c1ccc([N+](=O)[O-])cc1             8.29
3     CCNC(=O)Nc1ccc2ncc(-c3ccc(N)cc3)nc2n1             6.03

Consider the compound Nc1ncc(C2CCOCC2)cc1-c1ccc(C(=O)NCc2ccccc2Cl)cc1 and give its recorded pIC50.
6.58

----------
System: MAPK1(ERK2) enzyme (Homo sapiens) | Read-out: pIC50 | Origin: multiple publications
// pIC50 here means minus log10 of the molar concentration (mol/L)

> print(dat)
                                        mol  recorded.result
1  O=C(NCCCCc1ccccc1)Nc1ccc2ncc(-c3cccc(C(=O)O)c3)nc2n1             8.52
2  [2H]C([2H])([2H])n1nccc1Nc1ncc(C)c(-c2nc3c(s2)C(C)(C)N(Cc2cccc(F)c2)C3=O)n1             9.19
3  Cc1cnc(Nc2ccnn2C)nc1-c1cn2c(n1)C(=O)N(Cc1cccc(C(F)F)c1)CC2             9.52

Consider the additional compound presented here.
Find pIC50 for [2H]C([2H])(c1ccc(F)c(F)c1)N1C(=O)c2nc(-c3nc(Nc4ccnn4C([2H])([2H])[2H])ncc3C)cn2C[C@@H]1COC on MAPK1(ERK2) enzyme (Homo sapiens) and write it down.
8.48

----------
System: MAPK1(ERK2) enzyme (Homo sapiens, UniProt P28482) | Read-out: IC50 | Origin: multiple publications

> print(dat)
                                   compound  readout.type  recorded.result
1  COc1ncccc1-c1cnc2ccc(NC(=O)N[C@H](C)CCCc3ccccc3)nc2n1          IC50             2 nM
2  COCCn1nccc1Nc1ncc(C)c(-c2cc3n(c2)C[C@H](C)n2c-3nnc2C(F)(F)c2ccccc2F)n1          IC50       5 to 10 nM

Find IC50 for c1ccc(CNc2ccc3c(-c4[nH]ncc4-c4ccccc4)c[nH]c3n2)cc1 on MAPK1(ERK2) enzyme (Homo sapiens, UniProt P28482) and write it down.
11300 nM

Find IC50 for Cc1c(-c2ccnc(Nc3ccnn3C)n2)cn2c1-c1nnc([C@H](C)Oc3ccccc3F)n1CCC2 on MAPK1(ERK2) enzyme (Homo sapiens, UniProt P28482) and write it down.
≤ 5 nM

Find IC50 for Cc1cc(-c2n[nH]c3cc4c(cc23)CN([C@@H]2CCN(CCc3ccccc3)C2)C(=O)N4)ccn1 on MAPK1(ERK2) enzyme (Homo sapiens, UniProt P28482) and write it down.
< 500 nM

----------
System: UniProt P28482 | Read-out: pIC50 | Origin: multiple publications
pIC50: −log10 of the molar value.

Answered examples (10):
> print(dat)
                                    compound  recorded.result
 1  C[C@H](CCCc1ccccc1)NC(=O)Nc1ccc2ncc(-c3cnn(CCN4CCOCC4)c3)nc2n1             8.52
 2  CC[C@@H](Nc1nc(NCc2ccccn2)c2ncn(C(C)C)c2n1)C(O)C(C)C (mixture of isomers)           < 3.70
 3  Cn1nccc1Nc1cc(-c2cc3n(c2)CC2(COC2)Cn2c-3nnc2C(F)(F)C(F)F)c(Cl)cn1           ≥ 8.30
 4  Cn1nccc1Nc1ncc(F)c(-c2cc3n(c2)C[C@H](CF)n2c-3nnc2C(F)(F)c2ccccc2)n1           ≥ 8.30
 5  Cc1c(-c2ccnc(Nc3ccnn3C)n2)cn2c1-c1nnc(Nc3ccccc3F)n1CCC2           ≥ 8.30
 6  O=C(NC(CCO)c1ccccc1)c1nc2cc3c(-c4ccncc4)n[nH]c3cc2[nH]1 (stereo not shown)             9.10
 7    CCNC(=O)Nc1ccc2ncc(Nc3ccnc(Cl)c3)nc2n1           < 4.00
 8  Cn1nccc1Nc1cc(-c2cc3n(c2)C[C@H](C(F)F)n2c-3nnc2C(F)(F)n2cc(Cl)cn2)c(Cl)cn1     8.00 to 8.30
 9  N#CC(c1ccnc(Cl)n1)c1nc2ccccc2s1 (stereo not shown)           < 4.52
10  COC[C@H]1Cn2cc(-c3nc(Nc4ccnn4C)ncc3C)nc2C(=O)N1Cc1cccc(C(F)F)c1             9.15

Find pIC50 for CC(C(=O)N[C@H](CO)c1cccc(Cl)c1)N1C(=O)c2cc(-c3nc(NC4CCOCC4)ncc3Cl)sc2C1(C)C (stereo partly shown) on UniProt P28482 and write it down.
7.66

----------
System: MAPK1(ERK2) enzyme (Homo sapiens, UniProt P28482) | Read-out: pIC50 | Origin: multiple publications
pIC50: −log10 of the molar value.

> print(dat)
                                   compound                             target.system  readout.type  recorded.result
1  Cn1nccc1Nc1cc(-c2cc3n(c2)CCCn2c-3nnc2[C@H](O)C2CCCCC2)c(Cl)cn1  MAPK1(ERK2) enzyme (Homo sapiens, UniProt P28482)         pIC50     8.00 to 8.30
2  Nc1ncnc2c1c(-c1cccc(OC[C@@H]3CCCO3)c1F)cn2C1CC2(CNC(=O)O2)C1 (stereo partly shown)  MAPK1(ERK2) enzyme (Homo sapiens, UniProt P28482)         pIC50           < 5.00
3  Cc1cc(-c2n[nH]c3cc4c(cc23)CN(C2CCC2)C(=O)N4)ccn1  MAPK1(ERK2) enzyme (Homo sapiens, UniProt P28482)         pIC50           > 6.30
4  CCC(F)(F)c1nnc2n1[C@@H](CF)Cn1cc(-c3cc(Nc4ccnn4C)ncc3C)cc1-2  MAPK1(ERK2) enzyme (Homo sapiens, UniProt P28482)         pIC50           ≥ 8.30
5  O=C(NCCCCc1ccccc1)Nc1ccc2ncc(-c3cnn(CCO)c3)nc2n1  MAPK1(ERK2) enzyme (Homo sapiens, UniProt P28482)         pIC50             8.40
6  C[C@H]1CCn2cc(-c3cc(Nc4ccnn4C)ncc3Cl)cc2-c2nnc(C3(C(C)(F)F)CCC3)n21  MAPK1(ERK2) enzyme (Homo sapiens, UniProt P28482)         pIC50     8.00 to 8.30
7  Cn1nccc1Nc1nccc(-c2cc3n(c2)CCn2c(COc4ccccc4F)nnc2-3)n1  MAPK1(ERK2) enzyme (Homo sapiens, UniProt P28482)         pIC50           ≥ 8.30
8  CC[C@H](Nc1nc(NCc2cccnc2)c2ncn(C(C)C)c2n1)[C@@H](C)O  MAPK1(ERK2) enzyme (Homo sapiens, UniProt P28482)         pIC50             4.70

Find pIC50 for COC[C@H]1Cn2cc(-c3nc(Nc4ccnn4C)ncc3C)nc2C(=O)N1Cc1cccc(OC)c1 on MAPK1(ERK2) enzyme (Homo sapiens, UniProt P28482) and write it down.
8.82

Find pIC50 for Cn1nccc1Nc1cc(-c2cc3n(c2)CCCn2c-3nnc2C2(C(F)(F)F)CCC2)c(C#N)cn1 on MAPK1(ERK2) enzyme (Homo sapiens, UniProt P28482) and write it down.
8.00 to 8.30

Find pIC50 for Cc1cnc(Nc2ccnn2C)cc1-c1cc2n(c1)CCn1c-2nnc1C(F)(F)c1ccccc1F on MAPK1(ERK2) enzyme (Homo sapiens, UniProt P28482) and write it down.
8.00 to 8.30

Find pIC50 for [2H]C([2H])([2H])OC[C@H]1Cn2cc(-c3nc(Nc4ccnn4C)ncc3C)nc2C(=O)N1Cc1ccc(F)c(F)c1 on MAPK1(ERK2) enzyme (Homo sapiens, UniProt P28482) and write it down.
8.51

Find pIC50 for Nc1ncnc2c1c(-c1cccc(OCC3CCCO3)c1F)cn2[C@H]1C[C@@H](CN2CCS(=O)(=O)CC2)C1 (mixture of isomers) on MAPK1(ERK2) enzyme (Homo sapiens, UniProt P28482) and write it down.
< 5.00

Find pIC50 for Cc1cc(-c2n[nH]c3cc4c(cc23)CN([C@@H]2CN(C)C[C@H]2c2ccccc2F)C(=O)N4)cc(C)n1 (racemic) on MAPK1(ERK2) enzyme (Homo sapiens, UniProt P28482) and write it down.
> 6.30

Find pIC50 for COC(CNC(=O)c1nc2cc3c(-c4ccncc4)n[nH]c3cc2[nH]1)c1ccccc1 (stereo not shown) on MAPK1(ERK2) enzyme (Homo sapiens, UniProt P28482) and write it down.
9.68

Find pIC50 for Cc1cc(-c2n[nH]c3cc4c(cc23)CN(CC2CCCC2)C(=O)N4)ccn1 on MAPK1(ERK2) enzyme (Homo sapiens, UniProt P28482) and write it down.
> 6.30
